Biological target: Cytochrome P450 3A4 (Homo sapiens) (UniProt P08684)
Sequence (P08684 whole entry, looked up): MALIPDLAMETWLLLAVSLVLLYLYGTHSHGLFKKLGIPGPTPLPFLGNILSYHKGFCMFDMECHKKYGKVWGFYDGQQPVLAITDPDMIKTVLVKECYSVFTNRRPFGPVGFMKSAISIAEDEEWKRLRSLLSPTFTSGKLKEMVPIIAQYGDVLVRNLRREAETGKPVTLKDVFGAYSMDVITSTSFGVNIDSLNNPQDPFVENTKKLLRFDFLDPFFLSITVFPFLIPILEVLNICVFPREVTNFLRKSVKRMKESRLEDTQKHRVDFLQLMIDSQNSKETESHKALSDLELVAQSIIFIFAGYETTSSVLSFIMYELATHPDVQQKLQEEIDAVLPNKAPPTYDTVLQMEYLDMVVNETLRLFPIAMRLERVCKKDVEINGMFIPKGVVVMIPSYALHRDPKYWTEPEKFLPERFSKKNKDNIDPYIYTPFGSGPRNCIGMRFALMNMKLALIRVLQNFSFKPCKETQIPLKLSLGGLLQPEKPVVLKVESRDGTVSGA
Experiment: qHTS Assay for Activators of Cytochrome P450 3A4 (AID 885); further: nearly all actives have a fitted effect of over 65% in size
Settings: recombinant CYP3A4, Luciferin-PPXE luminescence, 60 min; series mostly up to 57.1 µM
Procedure: NIH Molecular Libraries Screening Centers Network [MLSCN] NIH Chemical Genomics Center [NCGC] The P450 gene superfamily is involved in the metabolism and clearance of xenobiotics. […] The luciferin is then measured by luminescence after the addition of a luciferase detection reagent. […] Inhibitors and some substrates limit the production of luciferin, and decrease measured luminescence; activators increase the production of luciferin and luminescence. […]
Active and inactive are the calls of the source. The call rests on the fitted dose curve; in most records, active means well fitted activation curve with a large enough effect; inconclusive means small, poorly fitted or top-dose-only effect; inactive means no such curve, though single readings can be large or run the other way.
Pick one: 1 (yes) for active, 0 (no) for inactive

Consider the worked cases shown below.
COc1ccccc1CN1CCCC2(CCN(C(=O)c3ccco3)CC2)C1; 0 (no)
CN1CCN(c2ncncc2-c2ccc(N(C)C)cc2)CC1; 0 (no)
Cc1noc(C)c1-c1nc(Nc2ccccc2)c2ccccc2n1; 0 (no)

Give the logged outcome of this assay for the following compound: "N#Cc1ccccc1-c1ccc2ncnc(NCCN3CCOCC3)c2c1"
0 (no)

Same thing, different compound: "COc1cccc(Nc2ncc3nc(C)c(=O)n(-c4ccccc4)c3n2)c1"
0 (no)

Same thing, different compound: "CN1CC[C@@]2(CCCN(C(=O)c3cccn3C)C2)C1"
0 (no)

* * *

biological target: Ubiquitin carboxyl-terminal hydrolase 1 (Homo sapiens) (UniProt O94782); assay: Inhibitors of USP1/UAF1: Pilot qHTS (AID 504865); details: purified USP1/UAF1, Ub-rhodamine cleavage fluorescence; series mostly up to 54.9 µM;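 further: rhodamine fluorescence freed from ubiquitin-rhodamine substrate followed over time; top concentration of the series differs between compounds; nearly all actives have a fitted effect of over 35% in size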
Sequence (O94782 whole entry, looked up): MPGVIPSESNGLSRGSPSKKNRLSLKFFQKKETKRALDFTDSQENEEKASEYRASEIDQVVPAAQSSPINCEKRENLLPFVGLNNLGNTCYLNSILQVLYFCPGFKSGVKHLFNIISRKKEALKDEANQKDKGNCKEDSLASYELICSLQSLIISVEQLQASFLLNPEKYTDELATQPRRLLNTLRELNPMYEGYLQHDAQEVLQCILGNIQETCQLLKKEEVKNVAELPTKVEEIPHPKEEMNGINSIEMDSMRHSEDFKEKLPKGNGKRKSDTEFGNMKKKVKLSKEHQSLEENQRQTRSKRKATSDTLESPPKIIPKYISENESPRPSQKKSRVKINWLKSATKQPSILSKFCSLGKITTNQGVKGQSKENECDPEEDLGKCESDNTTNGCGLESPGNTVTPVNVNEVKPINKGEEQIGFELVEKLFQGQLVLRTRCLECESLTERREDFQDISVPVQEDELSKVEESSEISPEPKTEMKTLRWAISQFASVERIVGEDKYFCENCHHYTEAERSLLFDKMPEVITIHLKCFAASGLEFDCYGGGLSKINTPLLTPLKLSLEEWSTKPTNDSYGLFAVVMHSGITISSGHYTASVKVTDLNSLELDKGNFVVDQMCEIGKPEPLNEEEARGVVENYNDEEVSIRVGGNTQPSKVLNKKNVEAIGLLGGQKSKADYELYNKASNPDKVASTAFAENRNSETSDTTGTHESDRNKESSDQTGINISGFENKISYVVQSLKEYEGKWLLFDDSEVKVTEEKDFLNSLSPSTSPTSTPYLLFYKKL
Records with an inconclusive call do not appear. Activity calls are given as the source filed them. The call rests on the fitted dose curve; in most records, active means well fitted inhibition curve with a large enough effect; inconclusive means small, poorly fitted or top-dose-only effect; inactive means flat fitted curve, though single readings scatter.
measure name: outcome

Cc1noc(C)c1-c1nccc(NC2CC2)n1; inactive
Cc1cnc(CNc2cc(-c3ccccc3Cl)ncn2)cn1; inactive
COc1ccccc1CCn1c(=O)c(-c2cccc(Cl)c2)nc2cncnc21; inactive
CN(C)C(=O)c1ccc(-c2ccc3ncnc(NCc4ccccc4)c3c2)cc1; inactive

* * *

target: Cytochrome P450 3A4 (Homo sapiens); assay: qHTS Assay for Activators of Cytochrome P450 3A4 (AID 885); details: recombinant CYP3A4, Luciferin-PPXE luminescence, 60 min; series mostly up to 57.1 µM; further: nearly all actives have a fitted effect of over 65% in size
Activity calls are given as the source filed them. Calls follow the shape of the dose curve; as a rule, active = well fitted activation curve with a large enough effect; inconclusive = small, poorly fitted or top-dose-only effect; inactive = no such curve, though single readings can be large or run the other way.
Pick one: active, inactive

COCCn1c(=O)c(-c2cc(F)cc(F)c2)nc2cncnc21; inactive
CS(=O)(=O)Nc1cccc(-c2ccc3ncnc(Nc4ccc(F)cc4)c3c2)c1; inactive

Give the logged outcome of this assay for the following compound: "Cc1cnc(CNc2ncncc2-c2ccccc2CN(C)C)cn1"
inactive

Same thing, different compound: "CNc1ncnc2ccc(-c3ccccc3C#N)cc12"
inactive

Same thing, different compound: "c1ccc2c(Nc3ccncc3)nc(-c3ccc4c(c3)OCO4)nc2c1"
inactive

* * *

tested on: NanoLuc luciferase (engineered Oplophorus gracilirostris luciferase); test: Biochemical coelenterazine-based NLuc counterscreen for small molecule modulators of PMP22 gene expression - Km assay (AID 1508639); conditions: secreted NLuc enzyme, coelenterazine luminescence, Km conditions; series mostly up to 57.5 µM
The list shows a part of the results. Results filed as inconclusive are left out. Active and inactive are the calls of the source. The call rests on the fitted dose curve; in most records, active means well fitted inhibition curve with a large enough effect; inconclusive means small, poorly fitted or top-dose-only effect; inactive means flat fitted curve, though single readings scatter.
Pick one: True (active), False (inactive)

Consider the worked cases shown below.
CCOC(=O)c1ccc(NC(=O)CSc2nc3c([nH]c4ccccc43)c(=O)n2C)cc1; False
Cc1cc(OCC(=O)NCC2(N(C)C)CCCCC2)cc(C)c1Cl; False
CC(C)(C)c1ccc(C(=O)NCC(c2ccco2)S(=O)(=O)c2ccc(F)cc2)cc1 (stereo not drawn); False
CCC1=Nc2cc(C(=O)NCCCOC(C)C)ccc2Sc2ccc(C)cc21; False
COc1ccccc1Nc1c2c(nc3ccc(NC(=O)/C=C/c4cc(OC)c(OC)c(OC)c4)cc13)CCCC2; True
CCCn1c(=N)c(C(=O)NCc2ccccc2)cc2c(=O)n3cccc(C)c3nc21; False
Cc1ccc(OCCSc2nc3ccc(NC(=O)COc4ccc(C)cc4)cc3s2)cc1; False
CCOC(=O)C1CCN(C(=O)CSc2c3c(nc4ccc(Cl)cc24)CCCC3)CC1; False

Give the logged outcome of this assay for the following compound: "Cc1ccc(C)n1-c1nnc(N2CCC(C(=O)NCc3ccccc3Cl)CC2)s1"
False

Same thing, different compound: "COc1ccc(CCNC(=O)c2cc(=O)c3c(C)cc(C)cc3o2)cc1OC"
True

Same thing, different compound: "CCOC(=O)c1c(C)[nH]c(CCC(=O)NCCCN2CCN(c3cccc(Cl)c3)CC2)c1C"
False
